- system_tested: human Y2 receptor (human) (UniProt P49146)
- Sequence (P49146 whole entry): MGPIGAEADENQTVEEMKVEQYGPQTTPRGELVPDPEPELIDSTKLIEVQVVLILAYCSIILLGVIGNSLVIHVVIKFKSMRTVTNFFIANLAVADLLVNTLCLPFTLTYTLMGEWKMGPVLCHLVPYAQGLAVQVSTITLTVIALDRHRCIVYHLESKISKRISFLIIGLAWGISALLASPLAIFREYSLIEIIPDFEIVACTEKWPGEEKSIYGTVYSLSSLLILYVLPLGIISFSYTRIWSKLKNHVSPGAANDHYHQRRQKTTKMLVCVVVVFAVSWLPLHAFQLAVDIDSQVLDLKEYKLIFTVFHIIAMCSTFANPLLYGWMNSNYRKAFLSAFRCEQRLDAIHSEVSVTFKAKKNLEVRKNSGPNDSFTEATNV
- procedure_text: RBA: [125I]-PYY displacement, hY2R/CHO membranes
Non-standard residues stand in square brackets, D forms with d. 3Pal = N[C@@H](Cc1cccnc1)C(=O)O; Cha = N[C@@H](CC1CCCCC1)C(=O)O; Aib = CC(C)(N)C(=O)O
measured_metric: IC50 Ratio (vs PYY(3-36))
Reply with just the number.

Ask | Value lookup for IC50 Ratio (vs PYY(3-36)); key = Ac-S[dP]R[3Pal][Cha][Cha]NL[Aib]TRQR[Cha]-NH2 (SMILES CC(=O)N[C@@H](CO)C(=O)N1CCC[C@@H]1C(=O)N[C@@H](CCCNC(=N)N)C(=O)N[C@@H](Cc1cccnc1)C(=O)N[C@@H](CC1CCCCC1)C(=O)N[C@@H](CC1CCCCC1)C(=O)N[C@@H](CC(N)=O)C(=O)N[C@@H](CC(C)C)C(=O)NC(C)(C)C(=O)N[C@H](C(=O)N[C@@H](CCCNC(=N)N)C(=O)N[C@@H](CCC(N)=O)C(=O)N[C@@H](CCCNC(=N)N)C(=O)N[C@@H](CC1CCCCC1)C(N)=O)[C@@H](C)O) [Ac-[D-Pro24, Pya(3)26, Cha27,28,36, Aib31]-PYY(23-36)]
Reply | 3.3
